# Lookup of reported MIC (minimum inhibiting concentration) keyed by entry
system: C. neoformans 2867E; assay: in vitro antifungal MIC, two-fold serial dilution; type: cell-based, Cryptococcus neoformans
Write the answer as a number in µg/mL, unit excluded.

Give the measured MIC (minimum inhibiting concentration) of CC(C)C1=CC2CC3(C=O)C4CCC(C)C4CC2(COC2OC(C)C(OCc4ccccc4)C4OC24)C13C(=O)O (stereo not drawn) [Example 54] .
2.00

----------
system: C. glabrata 2375E; test: in vitro antifungal MIC, two-fold serial dilution; assay type: cell-based, Candida glabrata
# Lookup of reported MIC (minimum inhibiting concentration) keyed by entry
Write the answer as a number in µg/mL, unit excluded.

As a guide, the following entries are already answered.
COMPOUND: C=C1COC2C(C)OC(OCC34CC5C(C)CCC5C5(C=O)CC3C=C(C(C)C)C54C(=O)[O-])CC12.[Na+] (stereo not drawn)
TARGET_UNDER_TEST: C. glabrata 2375E
VALUE_OBSERVED: 1.000
//
COMPOUND: CC(C)C1=CC2CC3(C=O)C4CCC(C)C4CC2(COC2CC4OCC(C)C4C(C)O2)C13C(=O)O (stereo not drawn)
TARGET_UNDER_TEST: C. glabrata 2375E
VALUE_OBSERVED: 8.00
//
COMPOUND: CCCOC1C(C)OC(OCC23CC4C(C)CCC4C4(C=O)CC2C=C(C(C)C)C43C(=O)O)C2OC12 (stereo not drawn)
TARGET_UNDER_TEST: C. glabrata 2375E
VALUE_OBSERVED: 8.00
//
COMPOUND: CC(C)C1=CC2CC3(C=O)C4CCC(C)C4CC2(COC2CC4OC(C)(C)OC4C(C)O2)C13C(=O)O (stereo not drawn)
TARGET_UNDER_TEST: C. glabrata 2375E
VALUE_OBSERVED: 31.00
//
COMPOUND: CC(C)C1=CC2CC3(C=O)C4CCC(C)C4CC2(COC2CC4C(C)COC4C(C)O2)C13C(=O)[O-].[Na+] (stereo not drawn)
TARGET_UNDER_TEST: C. glabrata 2375E
VALUE_OBSERVED: 0.500

Short answer please: MIC (minimum inhibiting concentration), C. glabrata 2375E, entry CC(C)C1=CC2CC3(C=O)C4CCC(C)C4CC2(COC2CC4=CCOC4C(C)O2)C13C(=O)O (stereo not drawn)
4.00
